- assay_overview: Toxicokinetic study, 14-day repeated intraperitoneal administration in Sprague-Dawley rats
- Format: in vivo
- assay_context: Sprague-Dawley, rat, in vivo, ip, Mean Tmax across the doses
metric: Tmax

Q: Output measured Tmax for this item: CO[C@@H]1C[C@@H](C[C@H]2CC[C@H](C)[C@H]([C@@H](C)C(=O)O)O2)O[C@]2(O[C@](C)([C@H]3CC[C@@](C)([C@@H]4O[C@@H]([C@H]5O[C@@](O)(CO)[C@H](C)C[C@@H]5C)C[C@@H]4C)O3)C[C@H]2C)[C@@H]1C [nigericin]
Ans: 4.8 to 25.2 min

----------
- assay_overview: Toxicokinetic study, 14-day repeated intraperitoneal administration in Sprague-Dawley rats
- Assay type: in vivo
- assay_context: male, Sprague-Dawley, rat, in vivo, ip, 5 mg/kg/day, Cmax
metric: Cmax (ng/mL)
Could you give me the number in ng/mL? Just the number is fine.

Q: Output measured Cmax for this item: `CO[C@@H]1C[C@@H](C[C@H]2CC[C@H](C)[C@H]([C@@H](C)C(=O)O)O2)O[C@]2(O[C@](C)([C@H]3CC[C@@](C)([C@@H]4O[C@@H]([C@H]5O[C@@](O)(CO)[C@H](C)C[C@@H]5C)C[C@@H]4C)O3)C[C@H]2C)[C@@H]1C`
Ans: 2390

----------
- assay_overview: Toxicokinetic study, 14-day repeated intraperitoneal administration in Sprague-Dawley rats
- Format: in vivo
- assay_context: female, Sprague-Dawley, rat, in vivo, ip, 0.5 mg/kg/day, AUClast
metric: AUC(0-t) (µg·h/mL)
Could you give me the number in µg·h/mL? Just the number is fine.

Q: Output measured AUC(0-t) for this item: `CO[C@@H]1C[C@@H](C[C@H]2CC[C@H](C)[C@H]([C@@H](C)C(=O)O)O2)O[C@]2(O[C@](C)([C@H]3CC[C@@](C)([C@@H]4O[C@@H]([C@H]5O[C@@](O)(CO)[C@H](C)C[C@@H]5C)C[C@@H]4C)O3)C[C@H]2C)[C@@H]1C`
Ans: 0.527

----------
- assay_overview: Toxicokinetic study, 14-day repeated intraperitoneal administration in Sprague-Dawley rats
- Format: in vivo
- assay_context: female, Sprague-Dawley, rat, in vivo, ip, 0.5 mg/kg/day, Tmax
metric: Tmax
Reply with the number and its unit after it.

Q: Output measured Tmax for this item: `CO[C@@H]1C[C@@H](C[C@H]2CC[C@H](C)[C@H]([C@@H](C)C(=O)O)O2)O[C@]2(O[C@](C)([C@H]3CC[C@@](C)([C@@H]4O[C@@H]([C@H]5O[C@@](O)(CO)[C@H](C)C[C@@H]5C)C[C@@H]4C)O3)C[C@H]2C)[C@@H]1C`
Ans: 19.8 min

----------
- assay_overview: Toxicokinetic study, 14-day repeated intraperitoneal administration in Sprague-Dawley rats
- Type: in vivo
- assay_context: female, Sprague-Dawley, rat, in vivo, ip, 0.5 mg/kg/day, Cmax
metric: Cmax
Reply with the number and its unit after it.

Q: Output measured Cmax for this item: CO[C@@H]1C[C@@H](C[C@H]2CC[C@H](C)[C@H]([C@@H](C)C(=O)O)O2)O[C@]2(O[C@](C)([C@H]3CC[C@@](C)([C@@H]4O[C@@H]([C@H]5O[C@@](O)(CO)[C@H](C)C[C@@H]5C)C[C@@H]4C)O3)C[C@H]2C)[C@@H]1C [nigericin]
Ans: 188 ng/mL
